# Test system: Saccharomyces cerevisiae
# Test Details: protein stability index of tFT-peptide fusion (C-terminal peptide) (PSI (0-1 scale)); higher = more stable (slower turnover)
# Test Conditions: genetic background: cdc53-1; temperature: 37 C
Kindly return class 1 if reported protein stability index is no lower than 0.7; return class 0 if it is lower.

Worked examples, 5 sequences total:
- IVTSFVSPVYIC: class 0
- SDAIKITFIIHN: class 0
- RIVLRPPFNSVA: class 1
- RRSRLYKKAGLM: class 1
- LSRELRFVGFYH: class 1

Now examine the next entry.
Input line: Entry `VVVWLFRIKSNV` : is its protein stability index no less than 0.7?
Output line: class 0

====

# System: Saccharomyces cerevisiae
# Test Details: protein stability index of tFT-peptide fusion (C-terminal peptide) (PSI (0-1 scale)); higher = more stable (slower turnover)
# Test Conditions: genetic background: wild type; temperature: 37 C
Measure: protein stability index
# print the numeric value only

Take a look at these entries with their results.
• FGVVRVSIPVGV = 0.316
• FRFFYLPVSVVA = 0.0865
• LVHLVLYVAVFC = 0.398
• VRRGAVWCCLCG = 0.633
• VFFFVSFFAFSS = 0.354

Input line: # lookup: protein stability index of `LFFLPPCYWFLL`
Output line: 0.571

Input line: Next up: `LIIVFGFTSILR`
Output line: 0.509

Input line: Next up: `SVQICGFWLILG`
Output line: 0.54

Input line: Next up: `AALFNYVVCFCA`
Output line: 0.436

Input line: Next up: `KLVFLLCLNKVF`
Output line: 0.29

Input line: Next up: `VGKGAGVRDGSR`
Output line: 0.713

Input line: Next up: `VFTGYSAFLLLC`
Output line: 0.0721

Input line: Next up: `WLGCVLIGWHVL`
Output line: 0.364

Input line: Next up: `VFFLSFIFRFFL`
Output line: 0.55

Input line: Next up: `IVFLPVLLWFSV`
Output line: 0.442

Input line: Next up: `WVVVARIFSVFF`
Output line: 0.469

Input line: Next up: `FWMLCFLCRLTV`
Output line: 0.361

Input line: Next up: `FPLGAQTWLCLS`
Output line: 0.466

Input line: Next up: `TCVVCSCVLQCV`
Output line: 0.464

Input line: Next up: `RPPPYSPRLFHN`
Output line: 0.179

Input line: Next up: `CVVFLWCGGCWV`
Output line: 0.734

====

# Test system: Saccharomyces cerevisiae;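 note: PSI is a weighted mean of sequencing reads over stability bins, variants kept only with over 10 reads, mCherry proximal and sfGFP distal, peptide attached via GGGS linker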
# Test Details: protein stability index of tFT-peptide fusion (C-terminal peptide) (PSI (0-1 scale)); higher = more stable (slower turnover)
# Test Conditions: genetic background: das1 deletion; temperature: 30 C
Measure: protein stability index
# print the numeric value only

Take a look at these entries with their results.
• VVLVGVAVCRLG = 0.29
• GALWVLGVVVGG = 0.365
• LWFGAWWLGAVG = 0.411

Input line: # lookup: protein stability index of `FSALAPTPLLPL`
Output line: 0.672

Input line: Next up: `GIGVVWLDVFKT`
Output line: 0.321

Input line: Next up: `VYLVVLYLRYFA`
Output line: 0.192

Input line: Next up: `LCWRLCRFWWVG`
Output line: 0.691

Input line: Next up: `CCSGWSVRLLCV`
Output line: 0.494
